# System: SF-268
# TEST_NAME: NCI tumour cell line growth inhibition, 48 h
The source made the active and inactive calls. Cut-off read from the data, not from the text of the source: active = GI50 up to about 1.1 µM and inactive = higher.
Outcome codes: Yes for active, No for inactive

{"columns": ["COMPOUND", "CLASS_LABEL"],
 "data": [
  ["O=C(O)CCN(CCC(=O)O)c1ccc(/C=C2\\SC(=S)NC2=O)cc1", "No"],
  ["CC(C)c1cccc(C(C)C)c1NC(=O)C(=O)C1SC(=S)NC1=O (centres undefined)", "No"],
  ["COc1cc2c(c(OC)c1OC)-c1ccc(OC)c(=O)cc1[C@@H](N(C)C=O)CC2", "Yes"],
  ["COc1cc(OC)c(/C=N/N=C(\\N)NO)c(OC)c1", "No"],
  ["CC(O)/C=C/C(CCC(C)CO)C(C)C (centres undefined)", "No"],
  ["O=C1CSC(Cc2nc3ccccc3[nH]2)=N1", "No"],
  ["O=C1NC2(CCNCC2)Oc2ccccc21", "No"],
  ["NCOC(=O)Cc1ccc(Br)cc1", "No"],
  ["C[NH+]1[C@@H](Cc2ccccc2)C(=O)O[B-]1(F)c1ccccc1 (some centres undefined)", "No"],
  ["COP(=O)(Cc1ccccc1)Cc1ccccc1", "No"],
  ["CC(=O)OCCOCNC(=S)N/N=C/c1cc([N+](=O)[O-])ccc1O", "No"],
  ["Ic1cc2c(cc1C1SCCCS1)OCO2", "No"],
  ["N#CC(C(=O)C(=O)Nc1ccc(Cl)c(Cl)c1)c1ccc(Cl)cc1 (centres undefined)", "No"],
  ["O=[N+]([O-])c1cccc(-c2nc(-c3ccccc3)c(-c3ccccc3)[nH]2)c1", "No"],
  ["COc1ccc(/C=C(\\C#N)c2nc(N)nc(N3N=C(C)CC3(C)C)n2)c(O)c1", "No"],
  ["C=C1CC(OC)(C(O)C(=O)N[C@H]2OCO[C@H]3C2O[C@H](C[C@H](O)COC)C(C)(C)C3OC)O[C@H](C)[C@@H]1C (some centres undefined)", "Yes"],
  ["CO/N=C(\\C)c1cccc(Nc2nc3ccccc3c3occc23)c1", "No"],
  ["O=C1CC2OCC=C3CN4CCC5(C(=O)O)C(N1)C2C3CC45 (centres undefined)", "No"],
  ["Cc1cc(OCc2nn(CN3CCN(C)CC3)c(=S)n2/N=C/c2ccc(-c3ccc(Cl)cc3Cl)o2)ccc1Cl", "No"]
]}

---

# Tested on: SF-539
# TEST_NAME: NCI tumour cell line growth inhibition, 48 h
Activity calls are given as the source filed them. No stated cut-off is given here; in the data, active = GI50 up to about 1.1 µM and inactive = higher.
Classes used: active, inactive

{"columns": ["COMPOUND", "TARGET_SYSTEM", "CLASS_LABEL"],
 "data": [
  ["CCCCCCCCCOC(=S)NCCCCC", "SF-539", "inactive"],
  ["CC(O)/C=C/C(CCC(C)CO)C(C)C (stereo not given)", "SF-539", "inactive"],
  ["COc1c2occc2c(N)c2ccc(=O)oc12", "SF-539", "inactive"],
  ["CC(=O)Nc1ccc2c3c(cc(O)c2c1)N(C(=O)CCCCCC(=O)N1CC(CCl)c2c1cc(O)c1cc(NC(C)=O)ccc21)CC3CCl (stereo not given)", "SF-539", "active"],
  ["C=CCCC12CCCC(=O)C1Sc1ccc3ccccc3c12 (stereo not given)", "SF-539", "inactive"],
  ["C=CCNC(=S)N1c2ccccc2NC(=O)CC1C (stereo not given)", "SF-539", "inactive"],
  ["CC1=C(Br)C(=O)c2c(O)ccc(O)c2C1=O", "SF-539", "active"],
  ["CC(C)(C)OC(=O)N(CCCCNCc1ccc2ccccc2c1)CCCNCc1ccc2ccccc2c1", "SF-539", "inactive"],
  ["CC1=CC(=O)c2ccc(C)cc2C1=O", "SF-539", "inactive"],
  ["C=C(C(=C)P(=S)(c1ccccc1)c1ccccc1)P(=S)(c1ccccc1)c1ccccc1", "SF-539", "inactive"],
  ["O=C(Nc1nc(C23CC4CC(CC(C4)C2)C3)cs1)c1cc2cc([N+](=O)[O-])ccc2oc1=O", "SF-539", "inactive"],
  ["CC(C)(C)OC(=O)NCCC(N)=S", "SF-539", "inactive"],
  ["CC(=O)OCC1=C(CCC#N)N2C(=O)C(NC(=O)Cc3cccs3)C2[S+]([O-])C1 (stereo not given)", "SF-539", "inactive"],
  ["C/C(=C1/N=C(c2ccccc2)OC1=O)c1ccccc1", "SF-539", "inactive"],
  ["OC[C@@H]1CC#C/C=C\\C#CC[C@@H]1CO", "SF-539", "inactive"]
]}

---

# Test system: HCT-116
# TEST_NAME: NCI tumour cell line growth inhibition, 48 h
The source made the active and inactive calls. No stated cut-off is given here; in the data, active = GI50 up to about 1.1 µM and inactive = higher.
Labels: TRUE for active, FALSE for inactive

{"columns": ["MOLECULE", "CLASS_LABEL"],
 "data": [
  ["CC(=O)Nc1ccccc1S(=O)(=O)c1c(-c2c(C)c(Cl)c(C)c(Cl)c2C)noc1C", "FALSE"],
  ["NC(=O)c1csc(C2OC(CO)C(O)C2O)n1 (centres undefined)", "FALSE"],
  ["O=C(Nc1nc(C23CC4CC(CC(C4)C2)C3)cs1)c1cc2cc([N+](=O)[O-])ccc2oc1=O", "FALSE"],
  ["COC1=C(N)C(=O)c2nc(-c3nc(C(=O)O)c(C)c(-c4ccc(OC)c(OC)c4O)c3N)ccc2C1=O", "TRUE"],
  ["COC(=O)C12CC(c3ccccc31)C1C(=O)OC(=O)C12 (centres undefined)", "FALSE"],
  ["COc1ccc(OC)c(NCC#N)c1", "FALSE"],
  ["CCCC(=O)N1CCN(c2ccc3c(c2)OC(C)O3)CC1 (centres undefined)", "FALSE"],
  ["O=c1cccccc1NCCCCCCCNc1cccccc1=O", "FALSE"],
  ["Cc1cccc(C)c1NC(=O)CCC(=O)NC(N)=S", "FALSE"]
]}

---

# System: OVCAR-5
# TEST_NAME: NCI tumour cell line growth inhibition, 48 h
Active and inactive are the calls of the source. No stated cut-off is given here; in the data, active = GI50 up to about 1.1 µM and inactive = higher.
Labels: 1.0 for active, 0.0 for inactive

{"columns": ["COMPOUND", "TARGET_SYSTEM", "CLASS_LABEL"],
 "data": [
  ["CO[C@@H]1C[C@H](OC(N)=O)[C@@H]2C=C[C@@H]3/C=C(C)/C=C/[C@@H](C)[C@H](/C(C)=C/[C@@H](C)NC(C)=O)OC(=O)/C=C/C=C(C)\\C=C\\[C@]3(C)[C@@H]2C1 [SUPERSTOLIDE B]", "OVCAR-5", 1.0],
  ["O=C1C(c2ccccc2)=[N+]([O-])c2cc([N+](=O)[O-])c(/C(Cl)=C/c3ccccc3)cc21", "OVCAR-5", 0.0],
  ["Cc1ccc(C[N+](C)(C)N)cc1C", "OVCAR-5", 0.0],
  ["NC(Cc1ccc(CP(=O)(O)O)cc1)C(=O)O (stereo unspecified)", "OVCAR-5", 0.0],
  ["COc1cc2c(c(OC)c1OC)-c1ccc(SC)c(=O)cc1[C@@H](NC(=O)c1ccc(C#N)cc1)CC2", "OVCAR-5", 1.0],
  ["CCC1CC(=O)N(SCC(N)C(=O)O)C1=O (stereo unspecified)", "OVCAR-5", 0.0],
  ["CC(C)(Br)C(=O)/C=C/c1ccccc1", "OVCAR-5", 0.0],
  ["CC1=CC(=O)c2ccc(C)cc2C1=O [CHIMAPHILIN]", "OVCAR-5", 0.0],
  ["COC(=O)c1ccc(C)cc1/C=C1\\Cc2ccc(C)cc2C1=O", "OVCAR-5", 0.0],
  ["O=c1cccccc1NCCCCCCCNc1cccccc1=O", "OVCAR-5", 0.0],
  ["O=S(=O)(NC1OCCCC1I)c1ccccc1 (stereo unspecified)", "OVCAR-5", 0.0]
]}

---

# Tested on: SK-MEL-28
# TEST_NAME: NCI tumour cell line growth inhibition, 48 h
Calls of active or inactive are those of the source. Cut-off read from the data, not from the text of the source: active = GI50 up to about 1.1 µM and inactive = higher.
Overview of recorded GI50 for various compounds
MEASURE_NAME: GI50

{"columns": ["SMILES_RECORD", "REPORTED_RESULT"],
 "data": [
  ["Oc1ccc(SCc2cc(O)ccc2O)cc1", "17.7 µM (inactive)"],
  ["O=C1CSC(Cc2nc3ccccc3[nH]2)=N1", "16 µM (inactive)"],
  ["COc1cc2c(c(OC)c1OC)-c1ccc(SC)c(=O)cc1[C@@H](NC(=O)c1ccc(C#N)cc1)CC2", "> 79.8 µM (inactive)"]
]}

---

# Test system: HT-29
# TEST_NAME: NCI tumour cell line growth inhibition, 48 h
Calls of active or inactive are those of the source. Cut-off read from the data, not from the text of the source: active = GI50 up to about 1.1 µM and inactive = higher.
Classes used: true = active, false = inactive

{"columns": ["COMPOUND", "CLASS_LABEL"],
 "data": [
  ["Cc1cc(S(=O)(=O)Nc2nc3ccccc3nc2-c2cccc([N+](=O)[O-])c2)c(S)cc1Cl", "false"],
  ["N=C(N)N/N=C(/CCN1CCCC1)CC(c1ccccc1)c1c(O)c2ccccc2oc1=O (stereo unspecified)", "false"],
  ["CCCCCCCCCOC(=S)NCCCCC", "false"],
  ["CO/C(=N\\N=C\\c1cccc(Cl)c1)c1ccncc1", "false"],
  ["CN(/N=C/c1cccc2cccnc12)c1ccc([N+](=O)[O-])cc1", "false"],
  ["CCOC(=O)/C(=C/c1ccc(OC)c(OC)c1)C(=O)c1ccccc1", "false"],
  ["O=C1C(C(O)(C(F)(F)Cl)C(F)(F)Cl)CCCC1C(O)(C(F)(F)Cl)C(F)(F)Cl (stereo unspecified)", "false"],
  ["CC(=O)OCC1(CNc2nc(N)ncc2C#N)CC(CCc2ccccc2)C1 (stereo unspecified)", "false"],
  ["COc1cc(OC)cc(-c2cc(=O)c3c(OC)c(OC)c(OC)c(OC)c3o2)c1", "false"],
  ["COc1cc2c(c(OC)c1OC)-c1ccc(SC)c(=O)cc1[C@@H](NC(=O)c1ccc(C#N)cc1)CC2", "true"],
  ["Cc1nc(C(N)=S)sc1C(=O)C/C(=N/N)C(=O)Nc1cccc(Cl)c1C", "false"],
  ["CCN1CCC(O)(/C=C/c2ccc(Cl)cc2)C(C(=O)/C=C/c2ccc(Cl)cc2)C1 (stereo unspecified)", "false"],
  ["N#CCCSC1SC(=C2SC3=C(SCCS3)S2)SC1SCCC#N (stereo unspecified)", "false"],
  ["COc1cc2c(cc1OC)C(Cc1ccccc1CCCl)=NCC2", "false"],
  ["O[C@]12C=C(c3nccc4c3[nH]c3ccccc34)[C@@H]3CCN(CCCC/C=C\\CC1)C[C@@]31CC3/C=C\\CCCCN3[C@H]12 (stereo partly specified)", "true"],
  ["O=C1OC[C@H]2[C@@H]1[C@H]1O[C@@H]2C2=C(CCC2)C1=O", "false"]
]}

Data provenance is ChEMBL document CHEMBL1201862.
